These measurements were taken from patent US9040663B2.

target.of.assay: hMC4-R (Homo sapiens (Human), UniProt P32245)
Sequence (P32245 whole entry): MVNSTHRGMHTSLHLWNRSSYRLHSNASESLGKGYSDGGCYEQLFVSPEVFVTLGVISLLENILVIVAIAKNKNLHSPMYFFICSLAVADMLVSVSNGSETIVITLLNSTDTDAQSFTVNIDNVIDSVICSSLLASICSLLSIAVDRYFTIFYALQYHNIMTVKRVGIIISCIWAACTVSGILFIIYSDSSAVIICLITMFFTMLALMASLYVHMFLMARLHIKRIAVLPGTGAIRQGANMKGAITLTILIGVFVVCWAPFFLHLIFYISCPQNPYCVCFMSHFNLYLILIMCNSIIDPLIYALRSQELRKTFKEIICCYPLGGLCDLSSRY
procedure.text: Competitive inhibition binding assay using [I125]-NDP-α-MSH, hMC4-R
condition.info: membranes of HEK-293 cells expressing recombinant hMC4-R, read-out: MC4-R Ki
pKi: −log10 of the molar value.
Returns one of true or false; true when pKi is >= 9.

Reference set (4 entries):
• CC(=O)NCC[C@@H]1NC(=O)[C@@H](NC(=O)[C@H](CCCNC(=N)N)NC(C)=O)CCC(=O)NCCC[C@@H](C(N)=O)NC(=O)[C@H](Cc2c[nH]c3ccccc23)NC(=O)[C@H](CCCNC(=N)N)NC(=O)[C@@H](Cc2ccccc2Cl)NC1=O [Example 56] = false
• CC(=O)N[C@@H](CCCNC(=N)N)C(=O)N[C@H]1CCC(=O)NCCC[C@@H](C(N)=O)NC(=O)[C@H](Cc2c[nH]c3ccccc23)NC(=O)[C@H](CCCNC(=N)N)NC(=O)[C@@H](Cc2cccc(C)c2)NC(=O)[C@H](CCN)NC1=O [Example 19] = true
• CC(=O)N[C@@H](CCCNC(=N)N)C(=O)N[C@H]1CCC(=O)NCCC[C@@H](C(N)=O)NC(=O)[C@H](Cc2c[nH]c3ccccc23)NC(=O)[C@H](CCCNC(=N)N)NC(=O)[C@@H](Cc2cccc(Cl)c2)NC(=O)[C@H]([C@@H](C)O)NC1=O [Example 36] = false
• CC(=O)N[C@@H](CCCNC(=N)N)C(=O)N[C@H]1CCC(=O)NCCC[C@@H](C(N)=O)NC(=O)[C@H](Cc2c[nH]c3ccccc23)NC(=O)[C@H](CCCNC(=N)N)NC(=O)[C@@H](Cc2ccccc2C)NC(=O)[C@H](CCN)NC1=O [Example 18] = true

(Q) Determine whether measured pKi meets or exceeds 9 for CC(=O)N[C@@H](CCCNC(=N)N)C(=O)N[C@H]1CCC(=O)NCCC[C@@H](C(N)=O)NC(=O)[C@H](Cc2c[nH]c3ccccc23)NC(=O)[C@H](CCCNC(=N)N)NC(=O)[C@@H](Cc2ccccc2[N+](=O)[O-])NC(=O)[C@H](CCN)NC1=O [Example 22]
(A) false

(Q) Determine whether measured pKi meets or exceeds 9 for CC(=O)N[C@@H](CCCNC(=N)N)C(=O)N[C@H]1CCC(=O)NCCC[C@@H](C(N)=O)NC(=O)[C@H](Cc2c[nH]c3ccccc23)NC(=O)[C@H](CCCNC(=N)N)NC(=O)[C@@H](Cc2ccc(F)cc2)NC(=O)[C@H](CCC(N)=O)NC1=O [Example 92]
(A) false

(Q) Determine whether measured pKi meets or exceeds 9 for CC(=O)N[C@@H](CCCNC(=N)N)C(=O)N[C@H]1CCC(=O)NCCC[C@@H](C(N)=O)NC(=O)[C@H](Cc2c[nH]c3ccccc23)NC(=O)[C@H](CCCNC(=N)N)NC(=O)[C@@H](Cc2ccccc2C#N)NC(=O)[C@H](CCN)NC1=O [Example 12]
(A) false

(Q) Determine whether measured pKi meets or exceeds 9 for CC(=O)N[C@@H](CCCNC(=N)N)C(=O)N[C@H]1CCCNC(=O)CC[C@@H](C(N)=O)NC(=O)[C@H](Cc2c[nH]c3ccccc23)NC(=O)[C@H](CCCNC(=N)N)NC(=O)[C@@H](Cc2cc(F)c(F)c(F)c2)NC(=O)[C@H](CC(N)=O)NC1=O [Example 96]
(A) false

(Q) Determine whether measured pKi meets or exceeds 9 for CC(=O)N[C@H](CCCNC(=N)N)C(=O)N[C@H]1CCCNC(=O)CC[C@@H](C(N)=O)NC(=O)[C@H](Cc2c[nH]c3ccccc23)NC(=O)[C@H](CCCNC(=N)N)NC(=O)[C@@H](Cc2ccc(F)c(F)c2)NC(=O)[C@H](Cc2c[nH]cn2)NC1=O [Example 54]
(A) true

(Q) Determine whether measured pKi meets or exceeds 9 for CC(=O)N[C@@H](CCCNC(=N)N)C(=O)N[C@H]1CCC(=O)NCCC[C@@H](C(N)=O)NC(=O)[C@H](Cc2c[nH]c3ccccc23)NC(=O)[C@H](CCCNC(=N)N)NC(=O)[C@@H](Cc2ccc(Cl)cc2)NC(=O)[C@H](CCN)NC1=O [Example 3]
(A) true

(Q) Determine whether measured pKi meets or exceeds 9 for CC(=O)N[C@@H](CCCNC(=N)N)C(=O)N[C@H]1CCC(=O)NCCC[C@@H](C(N)=O)NC(=O)[C@H](Cc2c[nH]c3ccccc23)NC(=O)[C@H](CCCNC(=N)N)NC(=O)[C@@H](Cc2ccccc2F)NC(=O)[C@H](CC(N)=O)NC1=O [Example 84]
(A) false
